- System: RSK1(Kin.Dom.1-N-terminal)
- Construct: gene RPS6KA1
- EXPERIMENTAL CONTEXT: concentration: 1 μM, replicates: in singlicate; n = 1;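 further: KINOMEscan kinase panel screen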

# SMILES STRUCTURE, MEASUREMENT TARGET, %Inh [%]
data = [
    ("CCn1c(-c2nonc2N)nc2c(C#CC(C)(C)O)ncc(OCCCCN)c21.O=C(O)C(F)(F)F.O=C(O)C(F)(F)F", "RSK1(Kin.Dom.1-N-terminal)", 18),
    ("C[C@@H]1CC[C@@H](C(=O)Nc2ccccc2)CN1c1cc(-c2ccc3c(N)n[nH]c3c2)nc(N)n1", "RSK1(Kin.Dom.1-N-terminal)", 14),
    ("C[C@@H](Oc1cc(-n2cnc3cc(-c4ccnc(NCCS(C)(=O)=O)c4)ccc32)sc1C(N)=O)c1ccccc1Cl", "RSK1(Kin.Dom.1-N-terminal)", 11),
    ("CC(=O)Nc1nc2cnc(Nc3cc(NC(=O)c4cccc(C5(C#N)CC5)c4Cl)ccc3C)nc2s1", "RSK1(Kin.Dom.1-N-terminal)", 0),
]

* * *

- Test system: RSK2(Kin.Dom.2-C-terminal)
- Construct: gene RPS6KA3
- EXPERIMENTAL CONTEXT: concentration: 1 μM, replicates: in singlicate; n = 1
QUANTITY MEASURED: %Inh (%)

# COMPOUND, QUANTITY MEASURED, VALUE UNITS, MEAS VALUE
records = [
    ("Nc1n[nH]c2cnc(-c3ccccc3)cc12", "%Inh", "%", 23),
    ("CCn1c(-c2nonc2N)nc2c(C#CC(C)(C)O)nc(OC[C@H](N)c3ccccc3)cc21", "%Inh", "%", 0),
    ("O=C(Nc1cccc(-c2nn3ccccc3c2-c2ccnc(Nc3cccc(F)c3)n2)c1)c1c(F)ccc(F)c1Cl", "%Inh", "%", 8),
    ("Cl.Cl.NCC(NCc1ccc(-c2ccnc3[nH]ccc23)s1)c1ccccc1 (centres unmarked)", "%Inh", "%", 0),
    ("CC(=O)Nc1nc2cnc(Nc3cc(NC(=O)c4cccc(C5(C#N)CC5)c4Cl)ccc3C)nc2s1", "%Inh", "%", 0),
    ("Cc1cccc(Nc2nc(N[C@H]3CCNC3)ncc2C(N)=O)c1.Cl", "%Inh", "%", 0),
    ("O=C(Nc1n[nH]c2nc(-c3ccc(O)cc3)ccc12)C1CC1", "%Inh", "%", 0),
    ("Cl.NC(=O)c1cccc(Nc2nccc(Nc3ccc(Oc4c(Cl)cccc4Cl)c(Cl)c3)n2)c1", "%Inh", "%", 5),
]

* * *

Recorded measurements of %Inh, one per entry
- System: TYK2(JH1domain-catalytic)
- EXPERIMENTAL CONTEXT: concentration: 1 μM, replicates: in singlicate; n = 1

# COMPOUND, MEASUREMENT TARGET, %Inh / %
data = [
    ("Cc1ccc(C)c(NC(=O)NC2CCN(c3ccnc(Nc4ccc(F)cc4)n3)C2)c1 (centres unmarked) [GSK1379720]", "TYK2(JH1domain-catalytic)", 36),
    ("COc1ccc(CNC(=O)NC2CCN(c3ccnc(Nc4ccc(F)cc4)n3)CC2)cc1 [GSK1379788]", "TYK2(JH1domain-catalytic)", 21),
    ("CN(C)S(=O)(=O)c1cc(-c2ccc3nccc(-c4cccc(S(N)(=O)=O)c4)c3c2)cnc1N [GSK1669921]", "TYK2(JH1domain-catalytic)", 13),
    ("CN1CCN(CCCNc2nccc(-c3c(-c4ccc(F)cc4)nn4cc(C(F)(F)F)ccc34)n2)CC1 [GW621581]", "TYK2(JH1domain-catalytic)", 28),
    ("CC(C)c1nc(-c2cccc(NS(=O)(=O)c3c(F)cccc3F)c2F)c(-c2ccnc(Nc3ccc(N4CCOCC4)nc3)n2)s1 [GSK2008607]", "TYK2(JH1domain-catalytic)", 94.9),
    ("Cc1ccc(F)c(C(=O)Nc2cccc(-c3nn4ccccc4c3-c3ccnc(Nc4cccc(F)c4)n3)c2)c1F [GSK361061]", "TYK2(JH1domain-catalytic)", 0),
    ("Nc1n[nH]c2cnc(-c3ccccc3)cc12 [SB-642124]", "TYK2(JH1domain-catalytic)", 79),
    ("O=C(Nc1n[nH]c2cc(-c3ccoc3)ccc12)C1CC1 [SB-738481]", "TYK2(JH1domain-catalytic)", 51),
]

* * *

- Tested on: JNK3
- Construct: gene MAPK10
- EXPERIMENTAL CONTEXT: concentration: 1 μM, replicates: in singlicate; n = 1
Everything with %Inh lower than 20% is no (0); everything else, including exactly 20%, is yes (1).

# COMPOUND, CATEGORY
measured = [
    ("O=C(Nc1n[nH]c2cc(-c3ccoc3)ccc12)C1CC1", "no (0)"),
    ("Cc1cccc(Nc2nc(N[C@H]3CCNC3)ncc2C(N)=O)c1.Cl", "yes (1)"),
    ("COc1ccc(Nc2nccc(N3CCC(NC(=O)Nc4cccc(OC)c4)C3)n2)cc1 (centres unmarked)", "no (0)"),
    ("Cc1ccc(F)c(C(=O)Nc2cccc(-c3nn4ccccc4c3-c3ccnc(Nc4cccc(F)c4)n3)c2)c1F", "yes (1)"),
    ("CN(C)S(=O)(=O)c1cc(-c2ccc3nccc(-c4cccc(S(N)(=O)=O)c4)c3c2)cnc1N", "no (0)"),
    ("Cc1occc1-c1ncc(OC[C@@H](N)Cc2c[nH]c3ccccc23)cc1-c1ccc2[nH]nc(C)c2c1.O=C(O)C(F)(F)F", "no (0)"),
    ("CN(C)Cc1ccc(-c2ccc3c(Nc4ccc(Oc5ccccn5)cc4)ccnc3c2)o1", "no (0)"),
    ("COc1cccc(C2=C(Nc3ccc(Cl)c(C(=O)O)c3)C(=O)NC2=O)c1", "yes (1)"),
]

* * *

- Tested on: CLK1
- EXPERIMENTAL CONTEXT: concentration: 1 μM, replicates: in singlicate; n = 1

# COMPOUND, %Inh [%]
measured = [
    ("O=C(Nc1cccc(Oc2ccc3nc(NC(=O)C4CC4)cn3n2)c1)c1ccccc1C(F)(F)F", 26),
    ("CN(C)S(=O)(=O)c1cc(-c2ccc3nccc(-c4cccc(S(N)(=O)=O)c4)c3c2)cnc1N", 57),
    ("NCCCC(NC(=O)c1cc(Br)c(-c2ccnc3[nH]ccc23)s1)c1ccccc1.O=C(O)C(F)(F)F.O=C(O)C(F)(F)F (stereo not shown)", 51),
    ("COc1ccc(CNC(=O)NC2CCN(c3ccnc(Nc4ccc(F)cc4)n3)CC2)cc1", 13),
    ("c1ccc(Oc2ccc(Nc3ccnc4cc(-c5ccc(CNCCN6CCOCC6)o5)ccc34)cc2)nc1", 17),
    ("O=C(Nc1n[nH]c2nc(-c3ccc(O)cc3)ccc12)C1CC1", 15),
    ("CCc1ccc(-c2ccc3c(c2)-c2c(cnn2C)S(=O)(=O)N3C)cc1", 22),
    ("COC(=O)Nc1nc2ccc(Oc3ccc(NC(=O)Nc4cc(C(F)(F)F)ccc4F)cc3)cc2n1C.Cl", 7),
    ("Cn1cc(-c2ccc3c(c2)CCN3C(=O)Cc2cccc(Cl)c2)c2c(N)ncnc21", 30),
    ("COc1cc(Nc2ncc3c(C)nc(-c4cc5ccccc5[nH]4)n3n2)cc(OC)c1OC", 88),
]

* * *

- Test system: ABL2
- EXPERIMENTAL CONTEXT: concentration: 1 μM, replicates: in singlicate; n = 1
QUANTITY MEASURED: %Inh

# MOLECULE, MEASUREMENT TARGET, MEAS VALUE
data = [
    ("CCS(=O)(=O)c1ccc(OC)c(Nc2nccc(-c3c(-c4cccc(NC(=O)c5c(F)cccc5F)c4)nn4ncccc34)n2)c1", "ABL2", "10%"),
    ("Cc1cccc(NC(=O)Nc2ccc(Oc3ncnc4ccn(C)c34)cc2)c1", "ABL2", "0%"),
    ("COc1cccc(-c2ccc3c(NC(=O)C4CC4)n[nH]c3n2)c1", "ABL2", "24%"),
    ("Cc1ccc(S(=O)(=O)Nc2ccc(Nc3nccc(Nc4cccc5[nH]ncc45)n3)cc2)cc1", "ABL2", "64%"),
    ("Fc1ccc(-c2ncn(C3CCNCC3)c2-c2ccnc(Oc3ccc(-c4ccccc4)cc3)n2)cc1", "ABL2", "1%"),
    ("COc1cc(Nc2nccc(-c3c(-c4cccc(NC(=O)c5c(F)cccc5F)c4)nn4ncccc34)n2)cc(OC)c1OC", "ABL2", "80%"),
    ("COc1cccc(NC(=O)NC2CCN(c3ccnc(Nc4cc(OC)c(OC)c(OC)c4)n3)C2)c1 (stereo not drawn)", "ABL2", "0%"),
    ("COc1ccc(Nc2nccc(NCCNC(=O)c3cc4ccccc4s3)n2)cc1", "ABL2", "9%"),
    ("Clc1ccc(-c2nn3ncccc3c2-c2ccnc(Nc3ccc4c(c3)OCCO4)n2)cc1", "ABL2", "0%"),
    ("c1ccc(-c2n[nH]cc2Nc2ccnc3ccccc23)nc1", "ABL2", "0%"),
    ("CN(C)Cc1ccc(-c2ccc3c(Nc4ccc(Oc5ccccn5)cc4)ccnc3c2)o1", "ABL2", "18%"),
    ("CCCCc1nn2ncccc2c1-c1ccnc(Nc2ccc(N3CCN(C)CC3)cc2)n1", "ABL2", "96.8%"),
    ("COC(=O)Nc1nc2ccc(Oc3ccc(NC(=O)Nc4cc(C(F)(F)F)ccc4F)cc3)cc2n1C.Cl", "ABL2", "84%"),
    ("Cn1cc(-c2[nH]c3cc(NC(=O)[C@H](N)C4CCCCC4)cc4c3c2C=NNC4=O)cn1", "ABL2", "30%"),
    ("CC(=O)N1CCN(c2ccc(Nc3nccc(-c4sc(C(C)C)nc4-c4cccc(NS(=O)(=O)c5cccc(Cl)c5)c4)n3)cn2)CC1", "ABL2", "83%"),
    ("O=C(NC1CCN(c2ccnc(Nc3ccc(F)cc3)n2)C1)c1cc2ccccc2s1 (stereo not drawn)", "ABL2", "21%"),
    ("CSc1cccc2c(-c3ccncn3)c(-c3ccc(F)cc3)nn12", "ABL2", "12%"),
    ("COc1ccc(CNC(=O)NC2CCN(c3ccnc(Nc4ccc(F)cc4)n3)CC2)cc1", "ABL2", "0%"),
    ("O=c1[nH]cc(-c2ccc(N3CCOCC3)cc2)c2sc(-c3cn[nH]c3)cc12", "ABL2", "0%"),
    ("Cl.c1ccc(-c2ccc3c(Nc4ccc5[nH]ncc5c4)ccnc3c2)nc1", "ABL2", "28%"),
    ("COc1ccc(Nc2nccc(N3CCC(NC(=O)Nc4cccc(OC)c4)C3)n2)cc1 (stereo not drawn)", "ABL2", "12%"),
    ("CC(C)(C)c1ccc2nccc(Nc3cccc(O)c3)c2c1", "ABL2", "33%"),
    ("Cc1cccc(Nc2nc(N[C@H]3CCNC3)ncc2C(N)=O)c1.Cl", "ABL2", "25%"),
    ("Nc1ncc(-c2ccc3nccc(-c4ccncc4)c3c2)cc1S(=O)(=O)N1CCOCC1", "ABL2", "13%"),
    ("Cc1ccc(C(=O)Nc2ccc(Nc3ccnc4cc(-c5nccs5)ccc34)cc2O)cc1.Cl", "ABL2", "12%"),
    ("O=C(Nc1cccc(-c2nn3ccccc3c2-c2ccnc(Nc3cccc(F)c3)n2)c1)c1c(F)ccc(F)c1Cl", "ABL2", "25%"),
    ("Nc1ncc(-c2cccnc2)c2scc(-c3ccc4c(c3)CCN4C(=O)Cc3ccccc3)c12", "ABL2", "62%"),
    ("NCCCC(NC(=O)c1cc(Br)c(-c2ccnc3[nH]ccc23)s1)c1ccccc1.O=C(O)C(F)(F)F.O=C(O)C(F)(F)F (stereo not drawn)", "ABL2", "23%"),
    ("Cl.Cl.NCC(NCc1ccc(-c2ccnc3[nH]ccc23)s1)c1ccccc1 (stereo not drawn)", "ABL2", "1%"),
    ("CN1CCN(CCCNc2nccc(-c3c(-c4ccc(F)cc4)nn4cc(C(F)(F)F)ccc34)n2)CC1", "ABL2", "9%"),
    ("Cn1cc(-c2ccc3c(c2)CCN3C(=O)Cc2cccc(Cl)c2)c2c(N)ncnc21", "ABL2", "53%"),
    ("Cl.Cl.NCC(C(=O)Nc1cc(Br)c(-c2ccnc3[nH]ccc23)s1)c1ccccc1 (stereo not drawn)", "ABL2", "35%"),
    ("COc1cc(Nc2nccc(N3CCC(NC(=O)Nc4cccc(C(C)=O)c4)C3)n2)cc(OC)c1OC (stereo not drawn)", "ABL2", "17%"),
]

Measured values drawn from paper PMC5540273 for this set.
